biological target: Cytochrome P450 2C9 (Homo sapiens); test: Cytochrome panel assay with activity outcomes; settings: recombinant CYP, pro-luciferin dealkylation, luminescence, p450-cyp2c9; series mostly up to 57.1 µM
The whole screen tested about 16,000 compounds, of which about 4,000 (25%) were called active. About 26% were inconclusive and are not listed. Calls follow the shape of the dose curve; as a rule, active = well fitted curve in the direction sought with a large enough effect; inconclusive = small, poorly fitted or top-dose-only effect, or effect the other way; inactive = no such curve, though single readings can be large or run the other way. Not all results are given here.
Outcomes: active, inactive

INSERT INTO measurements (smilesdata, grouplabel) VALUES
  ('CCOC(=O)N/N=C\c1ccc([N+](=O)[O-])o1', 'inactive'),
  ('CN(C)C(=O)/N=N\C(=O)N(C)C', 'inactive'),
  ('O=C(N/N=C/c1ccc([N+](=O)[O-])o1)c1cc(-c2ccncc2)nc2ccccc12', 'active'),
  ('CC(C)C(=O)Nc1ccc(NC(=O)c2cccnc2)cn1', 'inactive'),
  ('O=C(Nc1cc2ccccc2oc1=O)C1CCCCC1', 'inactive'),
  ('NC(=O)N/N=C\c1ccc([N+](=O)[O-])o1', 'inactive');

###

molecular target: Cytochrome P450 2C9 (Homo sapiens) (UniProt P11712); assay: Cytochrome panel assay with activity outcomes; conditions: recombinant CYP, pro-luciferin dealkylation, luminescence, p450-cyp2c9; series mostly up to 57.1 µM
Sequence (P11712 whole entry, looked up): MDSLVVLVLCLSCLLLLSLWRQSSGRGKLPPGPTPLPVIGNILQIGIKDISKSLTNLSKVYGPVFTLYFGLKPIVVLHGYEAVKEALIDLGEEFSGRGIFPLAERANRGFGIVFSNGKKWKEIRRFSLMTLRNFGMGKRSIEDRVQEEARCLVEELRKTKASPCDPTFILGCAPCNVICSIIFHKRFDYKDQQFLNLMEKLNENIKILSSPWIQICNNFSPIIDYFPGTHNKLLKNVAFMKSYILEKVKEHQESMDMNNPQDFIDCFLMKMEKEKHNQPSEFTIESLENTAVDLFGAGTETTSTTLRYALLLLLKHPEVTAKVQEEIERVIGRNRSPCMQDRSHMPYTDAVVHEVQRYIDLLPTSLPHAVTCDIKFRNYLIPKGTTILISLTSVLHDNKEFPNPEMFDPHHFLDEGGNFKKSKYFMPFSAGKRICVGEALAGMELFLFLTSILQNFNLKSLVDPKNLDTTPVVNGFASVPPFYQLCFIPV
About 4,000 (25%) of roughly 16,000 compounds were called active. Inconclusive results (about 26%) are left out. Calls follow the shape of the dose curve; as a rule, active = well fitted curve in the direction sought with a large enough effect; inconclusive = small, poorly fitted or top-dose-only effect, or effect the other way; inactive = no such curve, though single readings can be large or run the other way. Not all results are given here.
Outcomes: active, inactive

INSERT INTO measurements (molecule, grouplabel) VALUES
  ('COCC(=O)N1CCC2(CCCN(Cc3ccccc3)C2)CC1', 'inactive'),
  ('CSc1ccc2c(c1)N(CC[C@H]1CCCCN1C)c1ccccc1S2', 'inactive'),
  ('COc1ccc2[nH]cc(CCNc3ncnc4ccc(-c5cccc(C#N)c5)cc34)c2c1', 'active'),
  ('CCOC(=O)COc1c(OC)cc(Cl)cc1C1Nc2ccccc2C(=O)N1c1ccc(F)cc1 (configuration not stated)', 'active'),
  ('Oc1ccc2ccccc2c1Cc1c(O)ccc2ccccc12', 'active'),
  ('NC(=NCCC[C@H](N)C(=O)O)NO', 'inactive'),
  ('CC(=O)Nc1ccc(S(=O)(=O)NC2(C(F)(F)F)NC(=O)N(c3ccc(Cl)cc3)C2=O)cc1 (configuration not stated)', 'active'),
  ('CCOC(=O)CC1NC(=O)c2ccccc21 (configuration not stated)', 'inactive'),
  ('CCOC(=O)CN1C(=O)Nc2ccc(Br)cc2C1c1ccccc1 (configuration not stated)', 'active'),
  ('Cc1ccc(NC2=NC(c3ccccc3)n3c(nc(C)cc3=O)N2)c(C)c1 (configuration not stated)', 'active'),
  ('CS(=O)(=O)Nc1ccc([N+](=O)[O-])cc1Oc1ccccc1', 'active'),
  ('CC1=NN(c2ccccc2)C(=O)/C1=C\N1CC(C)OC(C)C1 (configuration not stated)', 'inactive'),
  ('CCCN=C(N)NCCC[C@H](N)C(=O)O', 'active'),
  ('NC(=O)CCCC1=NS(=O)(=O)c2ccccc2N1', 'inactive'),
  ('COc1ccc2[nH]cc(CCNc3ncnc4ccc(-c5ccc6c(c5)OCO6)cc34)c2c1', 'active'),
  ('Cc1noc(C)c1COc1ccc(C(=O)NCC2CCCO2)cc1 (configuration not stated)', 'inactive'),
  ('COc1ccc(C/C(N)=N/OC(=O)Cc2ccccc2)cc1OC', 'inactive'),
  ('CO[C@H]1C[C@@H](O[C@@H]2[C@H](C)[C@H](O[C@@H]3O[C@@H](C)C[C@@H](N(C)C)[C@@H]3O)[C@H](C)C[C@]3(CO3)C(=O)[C@H](C)[C@H](O)[C@H](C)[C@H](C)OC(=O)[C@@H]2C)O[C@@H](C)[C@H]1O', 'inactive'),
  ('COc1cc(C(=O)OC(C)C(=O)Nc2ccc3c(c2)OCO3)ccc1OCc1c(C)noc1C (configuration not stated)', 'active'),
  ('O=c1[nH]c(SCc2c(Cl)c(Cl)c(Cl)c(Cl)c2Cl)nc(=S)[nH]1', 'active'),
  ('Cc1noc(C)c1C(=O)N1CCC2(CCN(Cc3cc(C(F)(F)F)cc(C(F)(F)F)c3)CC2)CC1', 'inactive'),
  ('CCOC(=O)c1ccccc1Oc1c(F)c(F)nc(NCCO)c1F', 'active'),
  ('COc1cccc(CNc2ccc3nc(-c4ccc(N)cc4)c(OC)n3n2)c1', 'inactive'),
  ('CCOC(=O)COc1c(OC)cc(Cl)cc1C1Nc2ccccc2C(=O)N1c1cccc(C)c1 (configuration not stated)', 'active'),
  ('O=C(N/C(=C/c1ccc(Br)cc1)c1nc2ccccc2[nH]1)c1ccco1', 'inactive'),
  ('COc1cccc(-c2ccc3ncnc(NCCc4c[nH]c5ccc(OC)cc45)c3c2)c1', 'active'),
  ('C[C@@H]1C[C@@H]2[C@H]3CCC4=CC(=O)C=C[C@]4(C)[C@]3(Cl)[C@@H](O)C[C@@]2(C)[C@@]1(O)C(=O)CO', 'inactive'),
  ('CS(=O)(=O)Nc1ccc([N+](=O)[O-])cc1OC1CCCCC1', 'inactive'),
  ('CCN1CCCC1Cn1cnc2c([nH]c3ccc(C)cc32)c1=O (configuration not stated)', 'inactive'),
  ('COc1ccc2[nH]cc(CCNc3ncnc4ccc(-c5ccccc5OC)cc34)c2c1', 'active'),
  ('Cc1ccc(-n2c3c(c(=O)[nH]c2=O)C(NS(=O)(=O)c2ccc(C)cc2)(C(F)(F)F)C(=O)N3)cc1 (configuration not stated)', 'inactive'),
  ('CCCN[C@@H](C)C(=O)Nc1c(C)csc1C(=O)OC', 'inactive'),
  ('CCOC(=O)C1(C(=O)O)NC(=O)CC1c1ccccc1 (configuration not stated)', 'inactive'),
  ('C[C@@H](CN(C)C)CN1c2ccccc2CCc2ccccc21', 'inactive'),
  ('CC1=C(C)/C(=N\OC(=O)/C=C/c2ccccc2)C=CC1=O', 'inactive'),
  ('COc1cccc(=O)c2c(C)n(-c3cc(C)cc(C)c3)c(C)c12', 'active'),
  ('CC/C(=N/Nc1ccccc1)c1cnnc(SC)n1', 'active'),
  ('COC(=O)c1ccccc1Oc1c(F)c(F)nc(N2CCOCC2)c1F', 'active'),
  ('O=C(Cc1ccccc1)N/N=C\c1ccc(Br)o1', 'active'),
  ('NC(=O)c1cccc(N)c1', 'active'),
  ('N=C(N)c1ccccc1', 'inactive'),
  ('O=C(O)CC/C=C\CC[C@H]1[C@@H](N2CCCCC2)[C@@H](O)C[C@@H]1OCc1ccc(-c2ccccc2)cc1', 'inactive');

###

molecular target: Cytochrome P450 2C9 (Homo sapiens); experiment: Cytochrome panel assay with activity outcomes; details: recombinant CYP, pro-luciferin dealkylation, luminescence, p450-cyp2c9; series mostly up to 57.1 µM; as to activity, negative = inhibition: % is scaled to controls: 0 for no effect and ±100 for the full control effect
In all, about 16,000 compounds went through this assay and about 4,000 (25%) were called active. Roughly 26% stayed inconclusive and do not appear here. These entries were drawn from the full list.
assayReadout: activity, negative = inhibition

INSERT INTO measurements (smilesdata, assayedtarget, observedresult) VALUES
  ('CN1CCN(c2ncnc3ccc(-c4ccccc4C#N)cc23)CC1', 'Cytochrome P450 2C9 (Homo sapiens)', '2.98% [at 2.29 µM] (inactive)'),
  ('COC(=O)c1cc(=O)[nH]c(=O)[nH]1', 'Cytochrome P450 2C9 (Homo sapiens)', '3.6% [at 11.4 µM] (inactive)'),
  ('CN1CCC(n2[nH]c(-c3ccccc3)c(Cc3ccccc3)c2=O)CC1', 'Cytochrome P450 2C9 (Homo sapiens)', '0.284% [at 11.4 µM] (inactive)'),
  ('O=C1[C@@H]2[C@H]3[C@H](O)[C@H](O)C/C(=N/OCc4ccccc4)[C@H]3CC[C@H]2C(=O)N1c1ccc(F)cc1F', 'Cytochrome P450 2C9 (Homo sapiens)', '12.6% [at 11.4 µM] (inactive)'),
  ('O=C(O)[C@@H](Cc1c[nH]c2ccccc12)C(=O)NO', 'Cytochrome P450 2C9 (Homo sapiens)', '-10.3% [at 11.4 µM] (inactive)'),
  ('Cc1cnc(CNc2ncncc2-c2ccccc2Cl)cn1', 'Cytochrome P450 2C9 (Homo sapiens)', '28.2% [at 2.29 µM] (inactive)'),
  ('O=C(Nc1ccc2ncccc2c1)Nc1ccc2ncccc2c1', 'Cytochrome P450 2C9 (Homo sapiens)', '4.23% [at 11.4 µM] (inactive)'),
  ('C#CCSc1n[nH]c(-c2ccco2)n1', 'Cytochrome P450 2C9 (Homo sapiens)', '0.366% [at 11.4 µM] (inactive)'),
  ('NS(=O)(=O)c1cc(C(=O)O)c(Cl)c([N+](=O)[O-])c1Cl', 'Cytochrome P450 2C9 (Homo sapiens)', '8.24% [at 11.4 µM] (inactive)'),
  ('N#Cc1cccc(-c2cc(NCc3cccnc3)ncn2)c1', 'Cytochrome P450 2C9 (Homo sapiens)', '-26.2% [at 2.29 µM] (inactive)'),
  ('CCON=C1C(C)(C)C(C)(C)C(C)(C)C1(C)C', 'Cytochrome P450 2C9 (Homo sapiens)', '4.67% [at 11.4 µM] (inactive)'),
  ('c1ccc2c(CN3CCN(Cc4c[nH]c5ccccc45)CC3)c[nH]c2c1', 'Cytochrome P450 2C9 (Homo sapiens)', '-0.0395% [at 11.4 µM] (inactive)'),
  ('C[C@@H](c1ccccc1)N1C(=O)[C@H]2[C@@H]3[C@H](O)[C@H](O)CC(=O)[C@H]3CC[C@H]2C1=O', 'Cytochrome P450 2C9 (Homo sapiens)', '-15.7% [at 11.4 µM] (inactive)'),
  ('Cc1ccccc1-c1nccc(NCc2cccs2)n1', 'Cytochrome P450 2C9 (Homo sapiens)', '-17.9% [at 2.29 µM] (inactive)'),
  ('CN(C)C(=O)c1ccc(-c2nc(N(C)Cc3ccco3)c3ccccc3n2)cc1', 'Cytochrome P450 2C9 (Homo sapiens)', '5.2% [at 2.29 µM] (inactive)'),
  ('CN(C)c1ccc(-c2cncnc2Nc2ccc(F)cc2)cc1', 'Cytochrome P450 2C9 (Homo sapiens)', '-2.26% [at 2.29 µM] (inactive)'),
  ('COc1cccc(-c2nccc(N(C)Cc3ccco3)n2)c1', 'Cytochrome P450 2C9 (Homo sapiens)', '2.63% [at 2.29 µM] (inactive)'),
  ('O=C(O)CSSCC(=O)O', 'Cytochrome P450 2C9 (Homo sapiens)', '22.5% [at 11.4 µM] (inactive)'),
  ('CO[C@H]1COC(=O)CCC[C@H](C)[C@@H](OC)COC(=O)C/C=C\[C@@H]1C', 'Cytochrome P450 2C9 (Homo sapiens)', '14.4% [at 11.4 µM] (inactive)'),
  ('CC(C)CN(CC#N)CC(C)C', 'Cytochrome P450 2C9 (Homo sapiens)', '4.39% [at 11.4 µM] (inactive)'),
  ('O=C(O)CNc1ccc(C(=O)O)cc1', 'Cytochrome P450 2C9 (Homo sapiens)', '3.72% [at 11.4 µM] (inactive)'),
  ('CC(=O)O[C@H]1C2=CO[C@H](C)[C@H]3[C@H]4C5=C([C@H](O)[C@H]6O[C@@H]6C5=O)[C@H](O[C@H]4C)[C@@]23C(=O)[C@H]2O[C@@H]21', 'Cytochrome P450 2C9 (Homo sapiens)', '19.9% [at 11.4 µM] (inactive)'),
  ('Cc1cnc(CNc2nc(-c3ccccc3C(F)(F)F)nc3ccccc23)cn1', 'Cytochrome P450 2C9 (Homo sapiens)', '-16.4% [at 2.29 µM] (inactive)');

Where these numbers come from: PubChem BioAssay AID1851
